- assay-target: Probable G-protein coupled receptor 139 (Rattus norvegicus, UniProt P0C0W8)
- Sequence (P0C0W8 whole entry): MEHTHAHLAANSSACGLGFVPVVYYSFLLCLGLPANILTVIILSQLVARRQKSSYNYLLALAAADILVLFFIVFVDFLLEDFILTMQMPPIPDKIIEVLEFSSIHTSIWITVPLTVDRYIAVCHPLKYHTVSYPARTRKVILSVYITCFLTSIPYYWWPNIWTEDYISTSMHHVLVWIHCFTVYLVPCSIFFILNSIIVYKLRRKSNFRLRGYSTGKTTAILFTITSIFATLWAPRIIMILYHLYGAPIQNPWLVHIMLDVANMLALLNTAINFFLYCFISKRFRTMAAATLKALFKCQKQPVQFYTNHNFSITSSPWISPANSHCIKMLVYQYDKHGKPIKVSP
- test-description: Agonist activity at rat GPR139 expressed in CHO-K1 cells assessed as increase in calcium flux by calcium 5 dye based FLIPR assay
- Type: cell-based
pEC50: −log10 of the molar value.

chem-smiles: C[C@H](NC(=O)Cn1nc2cc(OC3CN(C)C3)ccn2c1=O)c1ccc(OC(F)(F)F)cc1
assay-target: Probable G-protein coupled receptor 139 (Rattus norvegicus, UniProt P0C0W8)
pEC50: ≤ 7.00
--
chem-smiles: Cc1ccc([C@H](C)NC(=O)Cn2nc3ccc(F)cn3c2=O)cc1F
assay-target: Probable G-protein coupled receptor 139 (Rattus norvegicus, UniProt P0C0W8)
pEC50: > 9.00
--
chem-smiles: C[C@H](NC(=O)Cn1nc2ncccn2c1=O)c1ccc(OC(F)F)c(F)c1
assay-target: Probable G-protein coupled receptor 139 (Rattus norvegicus, UniProt P0C0W8)
pEC50: ≤ 7.00
--
chem-smiles: C[C@H](NC(=O)Cn1nc2c(C(F)F)nccn2c1=O)c1ccc(OC(F)(F)F)cc1
assay-target: Probable G-protein coupled receptor 139 (Rattus norvegicus, UniProt P0C0W8)
pEC50: ≤ 7.00
--
chem-smiles: C[C@H](NC(=O)Cn1nc2cc(N3CCCCC3)ccn2c1=O)c1ccc(OC(F)(F)F)cc1
assay-target: Probable G-protein coupled receptor 139 (Rattus norvegicus, UniProt P0C0W8)
pEC50: > 9.00
